system: RPMI-8226; experiment: NCI tumour cell line growth inhibition, 48 h
Activity calls are given as the source filed them. Rule as the data show it: active = GI50 up to about 1.1 µM and inactive = higher.
measured_attribute: GI50

molecule	recorded_measurement
COc1ccc2c(c1)C(N)=C(c1ccccc1)C2=O	96.4 µM (inactive)
CC1=CP(=O)(OC(C)C)CC(C)=C1Cl (stereo unspecified)	94.8 µM (inactive)
CCOC(=O)C1=C(C)NC(=S)NC1c1ccccc1 (stereo unspecified)	33.9 µM (inactive)
COc1ccc2c(CCNS(=O)(=O)c3ccccc3)c(C(C)=O)[nH]c2c1	> 100 µM (inactive)
O=C(N/C(=C\c1ccccc1)c1nc2ccccc2c(=O)o1)c1ccccc1	> 100 µM (inactive)
N#CCC(=O)Nn1c(CC#N)nnc1Cc1ccccc1	> 100 µM (inactive)
N#Cc1c2c(c(N)oc1=O)C(c1ccccc1)CC(=O)N2 (stereo unspecified)	> 100 µM (inactive)
O[C@@H]1CCC[C@@H]2NC[C@@H](c3ccc4c(c3)OCO4)[C@H]12	> 100 µM (inactive)
COc1cccc2c1NC(=O)Cc1c-2[nH]c2ccccc12	31.2 µM (inactive)
COC(=O)C1CC2(c3ccccc3)C(=O)c3ccccc3N2O1 (stereo unspecified)	17.7 µM (inactive)
CC(C)c1ccc2c(c1)C=C1OC(=O)[C@]3(C)CCC[C@@]2(C)C13 (stereo partly specified)	> 100 µM (inactive)

---

system: Hs-578T; experiment: NCI tumour cell line growth inhibition, 48 h
Calls of active or inactive are those of the source. No stated cut-off is given here; in the data, active = GI50 up to about 1.1 µM and inactive = higher.
measured_attribute: GI50

compound	test_system	measured_attribute	recorded_measurement
Cc1c(C)c2c(c(N)c1C#N)C(=O)N(Cc1ccc(S(N)(=O)=O)cc1)C2=O	Hs-578T	GI50	> 46.3 µM (inactive)
O[C@@H]1CCC[C@@H]2NC[C@@H](c3ccc4c(c3)OCO4)[C@H]12	Hs-578T	GI50	99.1 µM (inactive)
COc1cccc2c1NC(=O)Cc1c-2[nH]c2ccccc12	Hs-578T	GI50	87.7 µM (inactive)
O=C1c2cc3c(cc2CC12Cc1cc4c(cc1C2=O)CCC4)CCC3	Hs-578T	GI50	> 100 µM (inactive)
COc1cc2c[n+](C)c3c(c2cc1OC)Cc1cc2c(cc1-3)OCO2	Hs-578T	GI50	> 100 µM (inactive)
Cc1ccc(/C=C2/N/C(=N\N=C/C(O)C(O)C(O)C(O)CO)NC2=O)cc1 (configuration not stated)	Hs-578T	GI50	> 100 µM (inactive)
COc1ccc2c(c1)C(N)=C(c1ccccc1)C2=O	Hs-578T	GI50	11.4 µM (inactive)
O=C1C=CC[C@H]2O[C@@H](COC(=O)Cc3ccccc3)C[C@H]2O1	Hs-578T	GI50	26.2 µM (inactive)
COC(=N)c1ncn(Cc2ccccc2)c1N	Hs-578T	GI50	> 100 µM (inactive)
CCOC(=O)c1c(Br)c(-c2ccc([N+](=O)[O-])cc2)c(Br)n1C	Hs-578T	GI50	5.06 µM (inactive)
CC(=O)c1cccc(NC(=O)/C(=N\NC(=S)NN)C2C(=O)Nc3ccccc3[S+]2[O-])c1 (configuration not stated)	Hs-578T	GI50	> 100 µM (inactive)
COc1ccccc1OCC(=N/NC(=O)c1ccncc1)/N=C/c1cccnc1	Hs-578T	GI50	> 100 µM (inactive)
Cc1cc2c(c(S(=O)(=O)c3ccccc3[N+](=O)[O-])c1)NCCC2	Hs-578T	GI50	> 100 µM (inactive)
FC(F)(Sc1ncc[nH]1)c1nc2ccccc2o1	Hs-578T	GI50	62.7 µM (inactive)
CN(C)NC(=S)Nc1ccccc1Br	Hs-578T	GI50	> 100 µM (inactive)
COc1c(O)cc2ccnc3c2c1N(C)C=C3	Hs-578T	GI50	> 100 µM (inactive)
COC1=CC(=O)c2c(c(-c3nc(C)cs3)cn2C)C1=O	Hs-578T	GI50	2.21 µM (inactive)
O=C1OC(c2ccccc2)=N/C1=C\c1cn[nH]n1	Hs-578T	GI50	> 100 µM (inactive)
CC1(C)[C@@H]2CC[C@@]1(C)[C@H](O)[C@@H]2SCc1ccccc1	Hs-578T	GI50	14.2 µM (inactive)
O=C(O)C1[C@@H](C(=O)O)C1(Br)CBr (some centres not stated)	Hs-578T	GI50	> 100 µM (inactive)
O=C(N/C(=C\c1ccccc1)c1nc2ccccc2c(=O)o1)c1ccccc1	Hs-578T	GI50	22.1 µM (inactive)
CN1CCN([C@H]2C[C@H]3[C@@H]4CC=C5C[C@@H](O)CC[C@]5(C)[C@H]4CC[C@]3(C)[C@H]2O)CC1	Hs-578T	GI50	> 100 µM (inactive)

---

GI50 values by entry
system: KM12; assay: NCI tumour cell line growth inhibition, 48 h
Activity calls are given as the source filed them. Rule as the data show it: active = GI50 up to about 1.1 µM and inactive = higher.

molecule	GI50
Cc1cc(S(=O)(=O)N=C2N(Cc3ccccc3)CCN2Cc2ccccc2)c(S)cc1Cl	> 100 µM (inactive)
O=[N+]([O-])C(C(Cl)=C(Cl)Cl)=C(n1nnc2ccccc21)n1nnc2ccccc21	> 58.5 µM (inactive)
CC(C(=O)c1ccncc1)c1ccccn1 (configuration not stated)	> 100 µM (inactive)
NCCNCCCCCCNC(=O)c1cccc2cc3ccccc3nc12	2 µM (inactive)
Cc1cccc2c1c1ccc3c(c1n2C)C(=O)C=CC3=O	13.2 µM (inactive)
COc1cc(/C=C/c2ccccn2)cc(OC)c1OC	> 10 µM (inactive)
O=c1ccn(C2OC(CO)C(P(=O)(O)O)C2O)c(=O)[nH]1 (configuration not stated)	> 100 µM (inactive)
CCOC(=O)[C@H](O)[C@@H](O)C(=O)NCc1ccc(C(=O)c2ccccc2)cc1	> 100 µM (inactive)
COC(=O)C(C(=O)C(=O)NC1Nc2ccc(C)cc2S1)c1nc2ccc(Cl)cc2nc1O (configuration not stated)	> 100 µM (inactive)
CC(C)=CCc1c(O)ccc2c1OC1c3ccc(O)c(CC=C(C)C)c3OCC21 (configuration not stated)	10.2 µM (inactive)
COc1ccccc1Cn1c2c(c3cc(O)ccc31)C(=O)c1ccccc1C2=O	70.6 µM (inactive)
O=C(O)CN(CC(=O)O)Cc1ccn(-c2cccc(-n3ccc(CN(CC(=O)O)CC(=O)O)n3)n2)n1	> 100 µM (inactive)
[O-]c1on[n+]2c1c(Nc1ccc(Cl)cc1)nc1ccccc12	> 100 µM (inactive)
Cc1c(C)c2c(c(N)c1C#N)C(=O)N(Cc1ccc(S(N)(=O)=O)cc1)C2=O	> 100 µM (inactive)
N#Cc1c2c(c(N)oc1=O)C(c1ccccc1)CC(=O)N2 (configuration not stated)	> 100 µM (inactive)
CCOC(=O)C1S/C(=N\c2ccc(C)c(C)c2)N=C1C (configuration not stated)	> 100 µM (inactive)
Nc1nc(N)c2c(n1)NC(c1ccccc1)CC(/C=C/c1ccc(Cl)cc1)=N2 (configuration not stated)	3.52 µM (inactive)
CC(C)(C)c1ccc(O)c(C[N+](C)(C)C)c1	> 100 µM (inactive)
O=S1(=O)N2CN3CN(C2)CN1C3	93.8 µM (inactive)
CN1C(=O)CCC2[C@@H]3CC=C4C[C@@H](O)CC[C@]4(C)C3CC[C@@]21C (some centres not stated)	59.8 µM (inactive)
CC(=O)CC(=O)Nc1ccc(OS(N)(=O)=O)cc1	> 100 µM (inactive)
NCCC(=O)N[C@H](Cc1cc(O)c(O)c(SCC(NC(=O)CC[C@H](N)C(=O)O)C(=O)NCC(=O)O)c1)C(=O)O (some centres not stated)	> 50 µM (inactive)

---

tested on: SK-MEL-2; assay: NCI tumour cell line growth inhibition, 48 h
Activity calls are given as the source filed them. Cut-off read from the data, not from the text of the source: active = GI50 up to about 1.1 µM and inactive = higher.
measured_attribute: GI50

compound	recorded_measurement
CO[C@H]1O[C@@H]2CO[C@@H](c3ccccc3)O[C@H]2[C@@H]2C/C=C\CCC[C@@]12O	16 µM (inactive)
N#CC1C=Cc2ccccc2N1C(=O)Oc1ccccc1 (stereo not given)	23.1 µM (inactive)
CCCCN1C=CN2c3nc4cc(C)c(C)cc4n3C(C(=O)OC)=C(C(=O)OC)C12 (stereo not given)	> 100 µM (inactive)
CC1=NN(C(=O)c2ccccc2O)C(=O)/C1=C/c1ccccc1O	6.4 µM (inactive)
COc1cc(CCN(C)C)cc(OC)c1OC	> 100 µM (inactive)
CC(CC[C@@H](C)C1CCC2[C@@H]3CC(O)C4CC(O)[C@@H](O)C[C@]4(C)C3CC[C@@]21C)C(C)(C)C (stereo not given in full)	> 100 µM (inactive)
CCOC(=O)C(=O)Nc1ccccc1C(C)C	> 100 µM (inactive)
Cc1ccc(Oc2ccc(C)cc2[N+](=O)[O-])cc1	> 100 µM (inactive)
Cc1cc(S(=O)(=O)N/C(=C(\C#N)C(=O)c2ccccc2)[n+]2ccc(N(C)C)cc2)c([S-])cc1Cl	83 µM (inactive)
Cc1ccc(/C=C/C(=O)c2ccc([N+](=O)[O-])cc2)cc1	> 100 µM (inactive)
